system under test: Histone acetyltransferase KAT2B (Homo sapiens)
assay text: Inhibition of human GST-fused histone acetyltransferase PCAF in U937 cell nuclear extracts assessed as remaining enzyme activity at 50 uM
Assay type: cell-free
measurement conditions: U-937
Short version: Activity at least 90% is 1, less is -1.

molecule smiles | system under test | category
CCCCCCCCCCCCCCCc1nc2ccccc2c(O)c1C(=O)OCC | Histone acetyltransferase KAT2B (Homo sapiens) | -1
CCCCCc1nc2ccccc2c(O)c1C(=O)OCC | Histone acetyltransferase KAT2B (Homo sapiens) | 1
CCOC(=O)c1c(C)nc2ccccc2c1O | Histone acetyltransferase KAT2B (Homo sapiens) | -1
CCCCCCCCCCCCCCCc1nc2ccccc2c(O)c1C(=O)O | Histone acetyltransferase KAT2B (Homo sapiens) | -1
CCCCCc1nc2ccccc2c(O)c1C(=O)O | Histone acetyltransferase KAT2B (Homo sapiens) | 1
Cc1nc2ccccc2c(O)c1C(=O)O | Histone acetyltransferase KAT2B (Homo sapiens) | 1
C=CC/C=C\C/C=C\CCCCCCCc1cccc(O)c1C(=O)O | Histone acetyltransferase KAT2B (Homo sapiens) | -1

Switching to the query record.
Prompt: Reported Activity reaches at least 90% for "C=C1C(=O)O[C@H](CCC)[C@H]1C(=O)O" ?
Completion: -1
